- MEASUREMENT_TARGET: CYP3A4 (Homo sapiens)
- Sequence (P08684 whole entry): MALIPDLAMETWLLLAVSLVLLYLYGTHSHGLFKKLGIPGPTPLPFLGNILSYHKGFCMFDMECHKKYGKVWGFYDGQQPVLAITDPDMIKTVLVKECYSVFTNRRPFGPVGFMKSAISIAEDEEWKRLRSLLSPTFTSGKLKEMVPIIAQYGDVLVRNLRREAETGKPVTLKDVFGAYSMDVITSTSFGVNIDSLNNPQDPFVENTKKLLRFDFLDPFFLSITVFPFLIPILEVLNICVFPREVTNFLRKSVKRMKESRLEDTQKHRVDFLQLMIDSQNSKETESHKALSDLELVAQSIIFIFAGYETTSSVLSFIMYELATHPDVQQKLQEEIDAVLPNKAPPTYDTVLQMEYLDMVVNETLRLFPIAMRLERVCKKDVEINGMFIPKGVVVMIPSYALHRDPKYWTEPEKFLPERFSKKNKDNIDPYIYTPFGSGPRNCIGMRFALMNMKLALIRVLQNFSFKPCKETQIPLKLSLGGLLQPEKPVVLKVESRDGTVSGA
- TEST_METHOD_NOTES: CYP450 inhibition CDNA-CYP3A4-BFC
- CONDITION_LABEL: human, E. coli expressed CYP3A4, pH 7.4, probe BFC 150 μM
This section presents compounds with their documented inhibition at 30 min, 10 μM values.
Give the value in % but do not write % after it.

Look over these answered cases.
>>> measured_number("C#CCN(C[C@@H](O)[C@H](Cc1ccccc1)NC(=O)OCc1cncs1)C(=O)c1ccc2nc(N(C)CC)oc2c1 [Compound C35]")
96
>>> measured_number("CCN(C)c1nc2ccc(C(=O)N(CC(C)C)C[C@@H](O)[C@H](Cc3ccccc3)NC(=O)OCc3ccncc3)cc2o1 [Compound C10]")
91
>>> measured_number("CC(C)CN(C[C@@H](O)[C@H](Cc1ccccc1)NC(=O)OCc1cncs1)C(=O)c1ccc2ncn(C)c2c1 [Compound C8]")
81

Next item in the queue.
Would you kindly share the measured inhibition at 30 min, 10 μM for CC(C)CN(C[C@@H](O)[C@H](Cc1ccccc1)NC(=O)OCc1cncs1)C(=O)c1ccc2nc(N)sc2c1 [Compound C6] ?
76

----------
- Test system: MT4 CMV-EGFP cells
- TEST_METHOD_NOTES: Toxicity, mock-infected MT4 CMV-EGFP cells
- Format: cell-based, human
MEASURED_METRIC: Toxicity MT4 (pCC50)

>>> result("O=C(N[C@@H](Cc1ccccc1)[C@H](O)CN(CCN1CCCC1)C(=O)c1ccc2nc(N3CCCC3)oc2c1)OCc1cncs1")
"<4.00"
>>> result("CC(C)CN(C[C@@H](O)[C@H](Cc1ccccc1)NC(=O)OCc1cncs1)C(=O)c1ccc2ncsc2c1")
"=4.00"
>>> result("CC(C)CN(C[C@@H](O)[C@H](Cc1ccccc1)NC(=O)OCc1cncs1)C(=O)c1ccc2nc(N3CCCC3)oc2c1")
"<4.00"
>>> result("CN(C)CCN(C[C@@H](O)[C@H](Cc1ccccc1)NC(=O)OCc1cncs1)C(=O)c1ccc2nc(N3CCCC3)oc2c1")
"<4.00"

Toxicity MT4 (pCC50) lookup needed for CC(C)CN(C[C@@H](O)[C@H](Cc1ccccc1)NC(=O)OCc1cncs1)C(=O)c1ccc2nc(N3CCOCC3)oc2c1 , thanks.
=4.06

I am curious: what Toxicity MT4 (pCC50) value has been reported for CC(C)(O)CN(C[C@@H](O)[C@H](Cc1ccccc1)NC(=O)OCc1cncs1)C(=O)c1ccc2nc(N3CCCC3)oc2c1 ?
<4.00

----------
- MEASUREMENT_TARGET: CYP2C19 (Homo sapiens)
- Sequence (P33261 whole entry): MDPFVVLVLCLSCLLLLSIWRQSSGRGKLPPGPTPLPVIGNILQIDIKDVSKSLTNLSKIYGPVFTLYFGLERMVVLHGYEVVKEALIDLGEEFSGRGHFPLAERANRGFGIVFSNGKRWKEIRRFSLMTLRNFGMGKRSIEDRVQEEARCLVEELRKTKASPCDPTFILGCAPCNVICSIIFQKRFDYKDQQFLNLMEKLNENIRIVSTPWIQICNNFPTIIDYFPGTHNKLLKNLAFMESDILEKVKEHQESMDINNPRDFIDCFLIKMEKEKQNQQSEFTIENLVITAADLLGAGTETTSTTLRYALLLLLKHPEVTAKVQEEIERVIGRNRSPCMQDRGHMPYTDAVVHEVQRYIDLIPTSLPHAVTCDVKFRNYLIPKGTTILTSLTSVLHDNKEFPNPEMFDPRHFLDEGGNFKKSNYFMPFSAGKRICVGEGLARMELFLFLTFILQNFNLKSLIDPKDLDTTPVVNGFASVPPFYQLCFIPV
- TEST_METHOD_NOTES: in vitro
- CONDITION_LABEL: E. coli expressed CYP2C19, pH 7.4, probe CEC 25 μM
# binarize inhibition at 30 min, 10 μM: threshold 90% inclusive, high side 1, low side -1

Below, 5 compounds whose answers are already recorded.
>>> assigned_class("CCN(C)c1nc2ccc(C(=O)N(CC3CCCCC3)C[C@@H](O)[C@H](Cc3ccccc3)NC(=O)OCc3cncs3)cc2o1 [Compound C32]")
1
>>> assigned_class("CCN(C[C@@H](O)[C@H](Cc1ccccc1)NC(=O)OCc1cncs1)C(=O)c1ccc2nc(N(C)CC)oc2c1 [Compound C29]")
1
>>> assigned_class("CC(C)CN(C[C@@H](O)[C@H](Cc1ccccc1)NC(=O)OCc1cncs1)C(=O)c1ccc2nc(NCCN(C)C)oc2c1 [Compound C16]")
-1
>>> assigned_class("CCN(C)c1nc2ccc(C(=O)N(CC(C)C)C[C@@H](O)[C@H](Cc3ccc(F)cc3)NC(=O)OCc3cncs3)cc2o1 [Compound C53]")
1
>>> assigned_class("Cc1nc2ccc(C(=O)N(CC(C)C)C[C@@H](O)[C@H](Cc3ccccc3)NC(=O)OCc3cncs3)cc2o1 [Compound C40]")
-1

Is inhibition at 30 min, 10 μM for CC(C)CN(C[C@@H](O)[C@H](Cc1ccccc1)NC(=O)OCc1cncs1)C(=O)c1ccc2nc(N3CCN(C)CC3)oc2c1 [Compound C15] at or above 90%?
-1

Entry CC(C)CN(C[C@@H](O)[C@H](Cc1ccccc1)NC(=O)OCc1cncs1)C(=O)c1ccc2ncn(C)c2c1 [Compound C8] : is its inhibition at 30 min, 10 μM no less than 90%?
-1

Could you tell me if the measured inhibition at 30 min, 10 μM of O=C(N[C@@H](Cc1ccccc1)[C@H](O)CN(CC1CCCCC1)C(=O)c1ccc2nc(N3CCCC3)oc2c1)OCc1cncs1 [Compound C31] reaches 90% or more?
1

Assess whether reported inhibition at 30 min, 10 μM for CC(C)CN(C[C@@H](O)[C@H](Cc1ccccc1)NC(=O)OCc1cncs1)C(=O)c1ccc2nc(N)sc2c1 [Compound C6] sits at 90% or higher.
1

Given CCN(C)c1nc2ccc(C(=O)N(CC(C)C)C[C@@H](O)[C@H](Cc3ccccc3)NC(=O)OCc3ccncc3)cc2o1 [Compound C10] , state whether its inhibition at 30 min, 10 μM is at least 90%.
-1

----------
Parameter: CC50 at 3 days. Scope: all listed entries.
- TEST_METHOD_NOTES: Toxicity, mock-infected MT4 CMV-EGFP cells
- Format: cell-based, human
- CONDITION_LABEL: human, mock-infected MT4 CMV-EGFP cells; read-out: Toxicity MT4 (pCC50) (converted)
Could you give me the number in µM? Just the number is fine.

In the examples that follow, each entry is paired with its recorded CC50 at 3 days.
>>> measured_number("C#CCN(C[C@@H](O)[C@H](Cc1ccccc1)NC(=O)OCc1cncs1)C(=O)c1ccc2nc(N(C)CC)oc2c1")
75.9
>>> measured_number("CCN(C[C@@H](O)[C@H](Cc1ccccc1)NC(=O)OCc1cncs1)C(=O)c1ccc2nc(N(C)CC)oc2c1")
81.3
>>> measured_number("O=C(N[C@@H](Cc1ccccc1)[C@H](O)CN(CC1CCCCC1)C(=O)c1ccc2nc(N3CCCC3)oc2c1)OCc1cncs1")
21.9

Could you now consider this next compound?
Consider the compound CC(C)CN(C[C@@H](O)[C@H](Cc1ccccc1)NC(=O)OCc1cncs1)C(=O)c1ccc2nc(N3CCCCC3)oc2c1 and give its measured CC50 at 3 days.
32.4

----------
Catalogue of inhibition at 10 min, 10 μM values
- MEASUREMENT_TARGET: CYP3A4 (Homo sapiens)
- TEST_METHOD_NOTES: in vitro
- CONDITION_LABEL: human, pH 7.4
Give just the number in %; leave the unit off.

>>> measured_number("CC(C)CN(C[C@@H](O)[C@H](Cc1ccccc1)NC(=O)OCc1cncs1)C(=O)c1ccc2nc(N3CCCCC3)oc2c1")
95

Which value of inhibition at 10 min, 10 μM has been reported for CC(C)CN(C[C@@H](O)[C@H](Cc1ccccc1)NC(=O)OCc1cncs1)C(=O)c1ccc2nc(N)sc2c1 in the records?
94

Need inhibition at 10 min, 10 μM of C#CCN(C[C@@H](O)[C@H](Cc1ccccc1)NC(=O)OCc1cncs1)C(=O)c1ccc2nc(N(C)CC)oc2c1 , thanks.
96

Please report the recorded inhibition at 10 min, 10 μM for CC(C)CN(C[C@@H](O)[C@H](Cc1ccccc1)NC(=O)OCc1cncs1)C(=O)c1ccc2nc(NCCN(C)C)oc2c1 .
91

Tell me the measured inhibition at 10 min, 10 μM of CC(C)CN(C[C@@H](O)[C@H](Cc1ccccc1)NC(=O)OCc1cncs1)C(=O)c1ccc2nc(N3CCN(C)CC3)oc2c1 , please.
93

Which measured inhibition at 10 min, 10 μM value corresponds to CCN(C[C@@H](O)[C@H](Cc1ccccc1)NC(=O)OCc1cncs1)C(=O)c1ccc2nc(N(C)CC)oc2c1 ?
94

Entry CCN(C)c1nc2ccc(C(=O)N(CC(C)C)C[C@@H](O)[C@H](Cc3ccccc3)NC(=O)OCc3ccncc3)cc2o1 has what inhibition at 10 min, 10 μM?
95

What value of measured inhibition at 10 min, 10 μM is listed for CC(C)CN(C[C@@H](O)[C@H](Cc1ccccc1)NC(=O)OCc1cncs1)C(=O)c1ccc2ncoc2c1 ?
92

----------
- Tested on: MT4 CMV-EGFP cells
- TEST_METHOD_NOTES: Toxicity, mock-infected MT4 CMV-EGFP cells
- Type: cell-based, human
MEASURED_METRIC: Toxicity MT4 (pCC50)

The cases that follow already have their Toxicity MT4 (pCC50) on record.
>>> result("CC(C)CN(C[C@@H](O)[C@H](Cc1ccccc1)NC(=O)OCc1cncs1)C(=O)c1ccc2ncn(C(C)C)c2c1")
"<4.00"
>>> result("O=C(N[C@@H](Cc1ccccc1)[C@H](O)CN(CCN1CCOCC1)C(=O)c1ccc2nc(N3CCCC3)oc2c1)OCc1cncs1")
"<4.00"
>>> result("CC(C)CN(C[C@@H](O)[C@H](Cc1ccccc1)NC(=O)OCc1cncs1)C(=O)c1ccc2nc(N)oc2c1")
"<4.00"
>>> result("CCN(C)c1nc2ccc(C(=O)N(CC(C)C)C[C@@H](O)[C@H](Cc3ccccc3)NC(=O)OCc3ccc4c(c3)OCO4)cc2o1")
"=4.57"
>>> result("CC(C)(C)CN(C[C@@H](O)[C@H](Cc1ccccc1)NC(=O)OCc1cncs1)C(=O)c1ccc2nc(N3CCCC3)oc2c1")
"=4.31"

Consider the compound CC(C)CN(C[C@@H](O)[C@H](Cc1ccccc1)NC(=O)OCc1cncs1)C(=O)c1ccc2nc(NCCCN(C)C)oc2c1 and give its measured Toxicity MT4 (pCC50).
<4.00

meta.source: patent US8350048B2
